Ref: patent US8470813B2

assayTarget: α7 nAChRs (Homo sapiens, UniProt P36544)
Construct: IMR-32 cells endogenous expressing α7 nAChRs
Sequence (P36544 23-502): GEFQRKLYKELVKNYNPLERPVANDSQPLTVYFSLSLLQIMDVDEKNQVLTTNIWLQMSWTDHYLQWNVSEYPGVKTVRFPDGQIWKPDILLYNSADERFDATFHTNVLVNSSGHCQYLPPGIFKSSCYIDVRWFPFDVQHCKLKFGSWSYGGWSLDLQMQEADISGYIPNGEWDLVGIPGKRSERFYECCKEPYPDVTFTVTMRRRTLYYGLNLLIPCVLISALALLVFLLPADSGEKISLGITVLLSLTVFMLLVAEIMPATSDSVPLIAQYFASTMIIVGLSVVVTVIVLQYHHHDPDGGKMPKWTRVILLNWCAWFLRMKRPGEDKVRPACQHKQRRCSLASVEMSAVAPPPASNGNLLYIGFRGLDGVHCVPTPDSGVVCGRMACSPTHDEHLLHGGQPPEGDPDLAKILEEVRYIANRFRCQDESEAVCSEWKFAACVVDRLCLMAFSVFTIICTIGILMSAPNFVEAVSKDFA
assayName: High-throughput calcium flux (FLIPR) assay using IMR-32 cells expressing endogenous α7 nAChRs
condition: IMR-32 neuroblastoma cells; in presence of agonist 4-(5-phenyl-[1,3,4]oxadiazol-2-yl)-1,4-diaza-bicyclo[3.2.2]nonane; FIG. 2; read-out: EC50 value of the modulator (calcium fluorescence response)
outcomeMeasure: EC50

Short answer for Cc1cn(-c2ccc3c(c2)OC(F)(F)O3)/c(=N/C(=O)N(C)C)s1 : EC50 was 3 µM
